Please go through the items and note down their EC50.
- tested_on: human TLR7 (Homo sapiens (Human))
- experimental_protocol: Reporter Gene Assay (HEK293 stably transfected with human TLR7 and NF-kB-driven luciferase reporter)
- Format: cell-based
- run_parameters: HEK293 cells stably transfected with human TLR7 and pNifty-Luciferase; 7 hours incubation; EC50 relative to the activity of resiquimod set to 100%
Answers are plain numbers, in µM.

Here's what some known entries look like.
compound_smiles | reported
CCCCCNc1nc(N)nc2ccn(Cc3cc(CN4CCNCC4)ccc3OC)c12 | 0.02
CCCCCNc1nc(N)nc2ccn(Cc3ccc(C(=O)OC)cc3OC)c12 | 0.01
CCCCCNc1nc(N)nc2ccn(Cc3cc(CC(=O)OCC(=O)N4CCOCC4)ccc3OC)c12 | 0.01
CCCCCNc1nc(N)nc2ccn(Cc3ccc(CC(=O)OCC(=O)N(CCC)CCC)cc3OC)c12 | 0.2
CCCCCNc1nc(N)nc2ccn(Cc3cc(N)ccc3OC)c12 | 0.001

I'm hoping you can list EC50 for every molecule here, please.
1. CCCCCNc1nc(N)nc2ccn(Cc3cc(CCC(=O)OCC)ccc3OC)c12
2. CCCCCNc1nc(N)nc2ccn(Cc3ccc(CC(=O)OCC(=O)OCc4ccccc4)cc3OC)c12
3. CCCCCNc1nc(N)nc2ccn(Cc3cc(OCC(=O)OCCN4CCOCC4)ccc3OC)c12
4. CCCC[C@@H](CO)Nc1nc(N)nc2ccn(Cc3ccc(CCC(=O)OCC(=O)N4CCOCC4)cc3OC)c12
5. CCCCCNc1nc(N)nc2ccn(Cc3ccc(CC(=O)OCC(=O)N4CCOCC4)cc3OC)c12

[0.03, 0.2, 0.4, 0.02, 0.006]

Need EC50 for each of these molecules.
1. CCCCCNc1nc(N)nc2ccn(Cc3cc(OCC(=O)OCCN(C)C)ccc3OC)c12
2. CCCCCNc1nc(N)nc2ccn(Cc3cc(CCC(=O)OCC(=O)N4CCOCC4)ccc3OC)c12

[0.3, 0.05]

* * *

- tested_on: human TLR7 (Homo sapiens (Human), UniProt Q9NYK1)
- Sequence (Q9NYK1 27-1049): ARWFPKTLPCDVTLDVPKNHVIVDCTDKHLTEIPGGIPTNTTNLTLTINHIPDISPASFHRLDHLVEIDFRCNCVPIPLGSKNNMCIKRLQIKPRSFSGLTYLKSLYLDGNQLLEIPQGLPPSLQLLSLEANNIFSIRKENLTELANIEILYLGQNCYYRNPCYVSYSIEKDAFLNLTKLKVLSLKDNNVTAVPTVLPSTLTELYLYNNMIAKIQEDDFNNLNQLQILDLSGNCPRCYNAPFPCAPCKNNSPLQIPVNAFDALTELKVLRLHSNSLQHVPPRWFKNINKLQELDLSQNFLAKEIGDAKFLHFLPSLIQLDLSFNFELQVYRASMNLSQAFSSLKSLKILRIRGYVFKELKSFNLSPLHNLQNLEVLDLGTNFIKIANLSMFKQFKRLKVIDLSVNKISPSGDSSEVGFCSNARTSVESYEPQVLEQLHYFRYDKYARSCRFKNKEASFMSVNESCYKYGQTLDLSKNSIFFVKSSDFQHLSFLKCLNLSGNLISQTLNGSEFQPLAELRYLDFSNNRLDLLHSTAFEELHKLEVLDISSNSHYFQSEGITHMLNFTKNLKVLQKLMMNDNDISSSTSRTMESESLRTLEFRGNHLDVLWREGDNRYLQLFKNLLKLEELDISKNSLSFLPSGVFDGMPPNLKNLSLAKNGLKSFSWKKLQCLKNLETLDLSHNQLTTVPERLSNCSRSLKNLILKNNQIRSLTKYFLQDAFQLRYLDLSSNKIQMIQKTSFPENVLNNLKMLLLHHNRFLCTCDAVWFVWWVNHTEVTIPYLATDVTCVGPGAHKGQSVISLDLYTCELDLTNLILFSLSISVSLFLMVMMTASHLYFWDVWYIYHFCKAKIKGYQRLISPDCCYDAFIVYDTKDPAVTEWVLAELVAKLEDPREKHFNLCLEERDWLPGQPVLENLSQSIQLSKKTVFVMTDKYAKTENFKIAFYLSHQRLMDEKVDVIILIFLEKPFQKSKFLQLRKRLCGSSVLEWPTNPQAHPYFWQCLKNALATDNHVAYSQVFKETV
- experimental_protocol: Reporter Gene Assay (HEK293 stably transfected with human TLR7 and NF-kB-driven luciferase reporter)
- Format: cell-based
- run_parameters: HEK293 cells stably transfected with human TLR7 and pNifty-Luciferase; 7 hours incubation; EC50 relative to the activity of resiquimod set to 100%
- Procedure: As a control assay, normal Hek293 transfected with pNifty-Luc were used. […] Bright-Glo™ Luciferase assay buffer and substrate were supplied by Promega #E263B and #E264B (assay substrate and buffer respectively). […] Cells were plated at 25,000 cells/well in 384-well plates in a final volume of 50 μl of media. […] The luminescence signal was read on a CLIPR machine with an integration time of 20 seconds per plate.
test_readout: log10(EC50) (log10 of the value in µM)
Field: value | Transform: log10 | Quantity: EC50 | Unit: µM

compound_smiles | log10(EC50)
CCCCCNc1nc(N)nc2ccn(Cc3ccc(CC(=O)OCCCCN(C)C)cc3OC)c12 | -2.15

Count: 6. Required value per item: log10(EC50).
1. CCCCCNc1nc(N)nc2ccn(Cc3cc(CC(=O)OC)ccc3OC)c12
2. CCCCCNc1nc(N)nc2ccn(Cc3cc(OCC(=O)OCC(=O)N4CCOCC4)ccc3OC)c12
3. CCCC[C@@H](CO)Nc1nc(N)nc2ccn(Cc3cc(CCC(=O)OCC(=O)N4CCOCC4)ccc3OC)c12
4. CCCC[C@@H](CO)Nc1nc(N)nc2ccn(Cc3cc(CC(=O)OCC(=O)N4CCOCC4)ccc3OC)c12
5. CCCCCNc1nc(N)nc2ccn(Cc3cc(OCC(=O)OCCN4CCNCC4)ccc3OC)c12
6. CCCCCNc1nc(N)nc2ccn(Cc3ccc(CC(=O)OCCN4CCOCC4)cc3OC)c12

[-2.00, -1.40, -1.52, -2.00, -0.30, -2.10]
